Assay: Pharmacokinetics and oral bioavailability in the rat
Format: in vivo
Details: plasma, MC suspension PO 3.7 mg/kg, read-out: % F absolute oral bioavailability
OBSERVATION_TYPE: bioavailability
Please give the number followed by its unit.

Please fill in: bioavailability reported for "C[C@H](NC(=O)[C@@](C)(Cc1c[nH]c2ccccc12)NC(=O)OCc1cc2ccccc2o1)c1ccccc1" = 4.1%

---

Assay: Brain penetration in the rat using HPLC assay
Format: in vivo
Conditions: brain, po, 21.4 mg/kg, PO 21.4 mg/kg, 12 h, read-out: BC/PC Ratio
OBSERVATION_TYPE: Kp at 12 h
Respond numerically, and do not add a unit to the figure.

Please fill in: Kp at 12 h reported for C[C@H](NC(=O)[C@@](C)(Cc1c[nH]c2ccccc12)NC(=O)OCc1cc2ccccc2o1)c1ccccc1 [The Compound] = 0.41
